# tested_target: UniProtKB Q9NR96
# protocol_notes: TLR9 inhibition reporter assay (HEK-Blue cells, SEAP reporter, ODN2006 stimulation)
# applied_conditions: HEK-Blue cells overexpressing human TLR9, SEAP reporter, ODN2006 5 nM
measurement_type: IC50 (µM)

Cc1c(-c2[nH]c3sc(N4CC5(CN(CCS(C)(=O)=O)C5)C4)nc3c2C(C)C)cn2ncnc2c1C	35.6

(a) Cc1c(-c2[nH]c3sc(N4C[C@@H](C)N(C(C)C)C[C@@H]4C)nc3c2C(C)C)cn2ncnc2c1C [Example 334]
(b) Cc1cc(-c2[nH]c3sc(C4CCN(C(=O)CN(C)C)CC4)nc3c2C(C)C)cc(C)n1
// query Min IC50? a | b Answer format: the label of the selected item.
// result b
(b: 0.645 µM, a: 4.83 µM)

(P) CNC1CCC(c2nc3c(C(C)C)c(-c4cc(OC)c5ncnn5c4)[nH]c3s2)CC1 (single isomer, unassigned) [Example 75]
(Q) Cc1c(-c2[nH]c3sc(C(=O)NCC4CNCCO4)nc3c2C(C)C)cn2ncnc2c1C (centres unmarked)
// query Param metric = IC50; output whichever of P , Q has the minimum value. Could you answer with the label of the item you picked?
// result P
(P: 3.39 µM, Q: 9.56 µM)

(a) Cc1c(-c2[nH]c3sc(N4CCC(NCC5(C)COC5)CC4)nc3c2C(C)C)cn2ncnc2c1C
(b) Cc1c(-c2[nH]c3sc(C4CCC(N5CC(O)C5)CC4)nc3c2C(C)C)cn(C)c(=O)c1C (single isomer, unassigned) [Example 264]
// query Return label of the item with the larger IC50. Candidates: a , b . # respond with the chosen item's label
// result b

(1) CCN(C)C1CCC(c2nc3c(C(C)C)c(-c4cc(OC)c5ncnn5c4)[nH]c3s2)CC1 (single isomer, unassigned) [Example 73]
(2) Cc1c(-c2[nH]c3sc(C4CCC(N5CCC5)CC4)nc3c2C(C)C)cn2ncnc2c1C (single isomer, unassigned) [Example 216]
(3) CC(C)c1c(-c2cn(C)c3ncccc23)[nH]c2sc(C3CCC(NC45CC(C4)C5)CC3)nc12 (single isomer, unassigned) [Example 177]
(4) Cc1c(-c2[nH]c3sc(C4CCC(NCC(C)(C)C)CC4)nc3c2C(C)C)cn2ncnc2c1C (single isomer, unassigned)
// query Ordering criterion: IC50; begin with the maximum. Use the labels to give the requested order.
// result 3, 2, 1, 4
(3: 9.79 µM, 2: 6.52 µM, 1: 4.28 µM, 4: 2.95 µM)

(P) COc1cc(-c2[nH]c3sc(C4CCC(N(C)C(C)C)CC4)nc3c2C(C)C)cn2ncnc12 (single isomer, unassigned) [Example 89]
(Q) Cc1c(-c2[nH]c3sc(C4CCC(NCC(C)(C)O)CC4)nc3c2C(C)C)cn2ncnc2c1C (single isomer, unassigned) [Example 197]
// query Which numeric IC50 is bigger, that of P or that of Q ? Use the label to indicate which entry you chose.
// result Q

---

# tested_target: UniProtKB Q9NR96
# protocol_notes: TLR9 inhibition reporter assay (HEK-Blue cells, SEAP reporter, ODN2006 stimulation)
# applied_conditions: HEK-Blue cells overexpressing human TLR9, SEAP reporter, ODN2006 5 nM
measurement_type: IC50 (µM)

Some entries whose results are on file:
COc1cc(-c2[nH]c3sc(C4CCC(N5CC6(CCOCC6)C5)CC4)nc3c2C(C)C)cn2ncnc12 (single isomer, unassigned) [Example 110]	5.78
Cc1c(-c2[nH]c3sc(N4CCNCC4)nc3c2C(C)C)cn(C)c(=O)c1C	23.9
CCN(C)C1CCC(c2nc3c(C(C)C)c(-c4cn5ncnc5c(C)c4C)[nH]c3s2)CC1 (single isomer, unassigned) [Example 190]	8.35

(P) COC(C)(C)CNC1CCC(c2nc3c(C(C)C)c(-c4cn5ncnc5c(C)c4C)[nH]c3s2)CC1 (single isomer, unassigned) [Example 186]
(Q) Cc1c(-c2[nH]c3sc(C4CCC(NCC(=O)N(C)C)CC4)nc3c2C(C)C)cn2ncnc2c1C (single isomer, unassigned) [Example 205]
(R) Cc1cc(-c2[nH]c3sc(C4CCN(C(C)C)CC4)nc3c2C(C)C)cc(C)n1
(S) COc1cc(-c2[nH]c3sc(C4CCC(N5CCCOCC5)CC4)nc3c2C(C)C)cn2ncnc12 (single isomer, unassigned) [Example 102]
// query Order the records, beginning with the lowest IC50 and ending with the highest. List labels; respect the requested ordering.
// result R, S, P, Q

---

# tested_target: human TLR7 (Homo sapiens, UniProt Q9NYK1)
# Construct: host or cells: HEK-Blue cells
# Sequence (Q9NYK1 27-1049): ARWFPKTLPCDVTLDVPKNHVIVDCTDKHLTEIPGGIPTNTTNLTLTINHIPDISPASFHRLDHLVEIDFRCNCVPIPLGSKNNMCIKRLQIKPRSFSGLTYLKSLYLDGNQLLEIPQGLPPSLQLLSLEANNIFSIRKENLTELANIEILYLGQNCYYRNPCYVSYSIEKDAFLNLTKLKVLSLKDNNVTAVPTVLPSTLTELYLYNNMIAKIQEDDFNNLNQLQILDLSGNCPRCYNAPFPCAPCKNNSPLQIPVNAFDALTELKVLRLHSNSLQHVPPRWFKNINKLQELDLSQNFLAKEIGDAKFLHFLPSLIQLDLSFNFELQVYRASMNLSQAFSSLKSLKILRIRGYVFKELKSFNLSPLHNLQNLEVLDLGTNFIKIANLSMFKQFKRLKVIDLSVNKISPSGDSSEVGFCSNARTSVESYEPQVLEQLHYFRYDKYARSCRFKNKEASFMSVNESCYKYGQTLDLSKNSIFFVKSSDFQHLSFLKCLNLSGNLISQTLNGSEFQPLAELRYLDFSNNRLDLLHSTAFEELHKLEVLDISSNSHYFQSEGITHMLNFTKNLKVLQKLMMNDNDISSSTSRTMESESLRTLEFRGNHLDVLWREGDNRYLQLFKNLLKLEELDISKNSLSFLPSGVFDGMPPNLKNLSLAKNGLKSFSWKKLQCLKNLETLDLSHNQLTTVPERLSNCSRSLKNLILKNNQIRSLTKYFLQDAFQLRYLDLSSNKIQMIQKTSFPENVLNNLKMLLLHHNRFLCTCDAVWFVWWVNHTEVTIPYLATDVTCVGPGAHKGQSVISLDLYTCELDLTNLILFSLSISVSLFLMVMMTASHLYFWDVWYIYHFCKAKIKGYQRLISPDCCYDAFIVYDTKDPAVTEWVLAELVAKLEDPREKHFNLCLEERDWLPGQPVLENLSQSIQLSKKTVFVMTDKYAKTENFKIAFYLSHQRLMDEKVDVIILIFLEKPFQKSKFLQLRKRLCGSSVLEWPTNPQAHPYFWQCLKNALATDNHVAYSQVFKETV
# protocol_notes: TLR7 inhibition reporter assay (HEK-Blue cells, SEAP reporter, gardiquimod stimulation)
# Format: cell-based
# applied_conditions: HEK-Blue cells overexpressing human TLR7, SEAP reporter, gardiquimod 7.5 μM; read-out: TLR7 IC50
measurement_type: IC50 (nM)

COc1cc(-c2[nH]c3sc(C4CCC(NC5(C)CCC5)CC4)nc3c2C(C)C)cn2ncnc12 (single isomer, unassigned) [Example 109]	6.81

(I) Cc1c(-c2[nH]c3sc(N4CCN(CC(N)=O)C[C@H]4C)nc3c2C(C)C)cn2ncnc2c1C
(II) Cc1c(-c2[nH]c3sc(CNCC4(S(C)(=O)=O)CC4)nc3c2C(C)C)cn2ncnc2c1C
(III) COc1cc(-c2[nH]c3sc(C4CCC(NC[C@@H](F)C(C)(C)O)CC4)nc3c2C(C)C)cn2ncnc12 (single isomer, unassigned) [Example 90]
// query Sort (3 compounds) by IC50: min first. Answer with the labels in sequence, matching the requested order.
// result III, I, II

---

# tested_target: human TLR8 (Homo sapiens)
# Construct: host or cells: HEK-Blue cells
# Sequence (Q9NR97 27-1041): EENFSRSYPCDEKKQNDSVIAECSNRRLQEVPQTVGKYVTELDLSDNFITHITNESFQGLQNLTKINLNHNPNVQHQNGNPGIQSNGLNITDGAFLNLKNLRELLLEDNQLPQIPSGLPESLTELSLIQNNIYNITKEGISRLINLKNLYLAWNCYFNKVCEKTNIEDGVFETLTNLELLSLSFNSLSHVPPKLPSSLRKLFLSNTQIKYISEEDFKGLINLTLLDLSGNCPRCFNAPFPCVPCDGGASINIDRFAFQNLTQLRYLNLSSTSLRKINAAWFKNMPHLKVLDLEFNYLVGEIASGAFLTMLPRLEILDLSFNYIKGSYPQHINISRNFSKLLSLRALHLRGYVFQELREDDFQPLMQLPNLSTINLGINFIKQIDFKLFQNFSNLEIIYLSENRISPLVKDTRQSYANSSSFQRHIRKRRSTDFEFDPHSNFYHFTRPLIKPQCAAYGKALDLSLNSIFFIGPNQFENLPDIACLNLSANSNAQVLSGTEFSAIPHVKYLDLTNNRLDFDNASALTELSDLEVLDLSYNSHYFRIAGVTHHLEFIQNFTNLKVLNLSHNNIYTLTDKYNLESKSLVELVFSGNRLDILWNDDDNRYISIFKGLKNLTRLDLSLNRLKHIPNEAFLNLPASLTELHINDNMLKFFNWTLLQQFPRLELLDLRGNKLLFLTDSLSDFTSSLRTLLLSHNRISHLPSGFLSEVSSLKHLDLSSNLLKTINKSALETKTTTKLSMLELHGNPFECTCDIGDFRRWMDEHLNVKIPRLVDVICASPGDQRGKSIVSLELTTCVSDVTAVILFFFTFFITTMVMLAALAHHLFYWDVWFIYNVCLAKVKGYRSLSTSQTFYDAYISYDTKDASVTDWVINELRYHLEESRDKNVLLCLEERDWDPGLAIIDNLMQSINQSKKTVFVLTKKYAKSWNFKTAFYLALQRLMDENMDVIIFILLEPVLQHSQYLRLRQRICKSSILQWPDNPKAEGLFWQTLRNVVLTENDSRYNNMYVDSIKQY
# protocol_notes: TLR8 inhibition reporter assay (HEK-Blue cells, SEAP reporter, R848 stimulation)
# Type: cell-based
# applied_conditions: HEK-Blue cells overexpressing human TLR8, SEAP reporter, R848 15.9 μM; read-out: TLR8 IC50
measurement_type: IC50 (nM)

Cc1c(-c2[nH]c3sc(C(=O)NCC4CNCCO4)nc3c2C(C)C)cn2ncnc2c1C (stereo not shown)	3.56

(a) CNC(=O)CN1CCN(c2nc3c(C(C)C)c(-c4cn5ncnc5c(C)c4C)[nH]c3s2)[C@@H](C)C1
(b) Cc1c(-c2[nH]c3sc(N4CCN(CC(N)=O)CC4)nc3c2C(C)C)cn2ncnc2c1C
// query Decide: a or b , by lowest recorded IC50. Mark your selection by writing its label.
// result b

(P) Cc1cc(-c2[nH]c3sc(C4CCC(NC5COC5)CC4)nc3c2C(C)C)cn2ncnc12 (single isomer, unassigned) [Example 131]
(Q) Cc1c(-c2[nH]c3sc(C4CCC(NC5CCOCC5)CC4)nc3c2C(C)C)cn2ncnc2c1C (single isomer, unassigned) [Example 201]
// query Of P and Q , which shows the smaller IC50 value? Let me know the label of the one you choose.
// result Q
(Q: 4.21 nM, P: 32.6 nM)

---

# tested_target: human TLR8 (Homo sapiens)
# Construct: host or cells: HEK-Blue cells
# protocol_notes: TLR8 inhibition reporter assay (HEK-Blue cells, SEAP reporter, R848 stimulation)
# Type: cell-based
# applied_conditions: HEK-Blue cells overexpressing human TLR8, SEAP reporter, R848 15.9 μM; read-out: TLR8 IC50
pIC50: −log10 of the molar value.
measurement_type: pIC50

(A) Cc1cc2ncnn2cc1-c1[nH]c2sc(C3CCC(N4CCNC(=O)C4)CC3)nc2c1C(C)C (single isomer, unassigned) [Example 149]
(B) Cc1cc(-c2[nH]c3nc(C4CCNCC4)sc3c2C(C)C)cn2ncnc12
(C) Cc1cc(-c2[nH]c3sc(C4CCC(NCC5(CO)CC5)CC4)nc3c2C(C)C)cn2ncnc12 (single isomer, unassigned) [Example 143]
// query Ascending by pIC50, please. State the ranking by listing the labels in the requested order.
// result B, A, C
(B: 6.70, A: 7.01, C: 7.71)

---

# tested_target: human TLR9 (Homo sapiens)
# Sequence (Q9NR96 26-1032): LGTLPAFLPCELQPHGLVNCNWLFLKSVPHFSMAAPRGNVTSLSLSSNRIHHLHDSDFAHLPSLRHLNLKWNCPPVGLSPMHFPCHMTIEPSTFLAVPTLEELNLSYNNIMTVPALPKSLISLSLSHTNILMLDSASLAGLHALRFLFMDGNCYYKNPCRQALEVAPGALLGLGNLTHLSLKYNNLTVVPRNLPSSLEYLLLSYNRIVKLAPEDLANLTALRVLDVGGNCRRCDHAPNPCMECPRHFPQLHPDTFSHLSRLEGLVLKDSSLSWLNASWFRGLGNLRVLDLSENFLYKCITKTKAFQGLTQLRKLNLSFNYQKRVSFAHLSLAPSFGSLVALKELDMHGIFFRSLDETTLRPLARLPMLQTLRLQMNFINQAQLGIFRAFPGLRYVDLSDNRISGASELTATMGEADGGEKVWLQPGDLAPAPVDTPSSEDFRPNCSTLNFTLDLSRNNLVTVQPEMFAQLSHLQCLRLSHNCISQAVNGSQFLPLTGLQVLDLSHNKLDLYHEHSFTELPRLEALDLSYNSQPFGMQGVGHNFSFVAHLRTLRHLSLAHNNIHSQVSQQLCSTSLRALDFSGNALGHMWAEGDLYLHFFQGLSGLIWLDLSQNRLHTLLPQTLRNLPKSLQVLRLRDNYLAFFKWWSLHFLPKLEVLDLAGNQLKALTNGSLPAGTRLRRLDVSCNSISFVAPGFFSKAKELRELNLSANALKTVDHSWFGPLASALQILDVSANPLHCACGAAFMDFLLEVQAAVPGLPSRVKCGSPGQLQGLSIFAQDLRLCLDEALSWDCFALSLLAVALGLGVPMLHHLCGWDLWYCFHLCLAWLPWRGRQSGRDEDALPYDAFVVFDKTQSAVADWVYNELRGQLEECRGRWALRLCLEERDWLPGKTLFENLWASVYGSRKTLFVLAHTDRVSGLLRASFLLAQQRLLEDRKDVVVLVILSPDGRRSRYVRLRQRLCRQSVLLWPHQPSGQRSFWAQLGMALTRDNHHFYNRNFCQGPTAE
# protocol_notes: TLR9 inhibition reporter assay (HEK-Blue cells, SEAP reporter, ODN2006 stimulation)
# applied_conditions: HEK-Blue cells overexpressing human TLR9, SEAP reporter, ODN2006 5 nM
measurement_type: IC50 (µM)

Cc1c(-c2[nH]c3sc(C4CCN(CC(N)=O)CC4)nc3c2C(C)C)cn2ncnc2c1C	32.8

(a) COc1cc(-c2[nH]c3sc(C4CCC(NC(C)C)CC4)nc3c2C(C)C)cn2ncnc12 (single isomer, unassigned) [Example 78]
(b) CCN(C)C1CCN(c2nc3c(C(C)C)c(-c4cn5ncnc5c(C)c4C)[nH]c3s2)CC1
(c) Cc1c(-c2[nH]c3sc(N4CCN(C5CCOCC5)C[C@H]4C)nc3c2C(C)C)cn2ncnc2c1C
// query Highest IC50 first, then in falling order down to the smallest. Thanks in advance for listing the labels in the requested order.
// result c, b, a
(c: 21.6 µM, b: 7.41 µM, a: 2.87 µM)
